assay: Half life in rat at 5 umol/kg, iv; format: ADME, organism-based; conditions: in vivo
measure.name: half-life (h)
Your answer is read as h, so omit the unit and give the number.

These solved cases illustrate the format of a correct answer.
N#Cc1cc(CN2CCC2)cnc1-c1ccc(C(=O)Nc2ccccc2N)cc1	3.8
Cc1cc(CN2CCC2)cnc1-c1ccc(C(=O)Nc2ccccc2N)cc1	3

Here is another compound to look at.
input: Request the reported half-life associated with Nc1ccccc1NC(=O)c1ccc(-c2ncc(CN3CCC3)cc2F)cc1
output: 3.6

---

Parameter logD: see the listing below.
experiment: Lipophilicity, log D at pH 7.4; format: physicochemical; settings: buffer
Note: the reply should be a number with no unit written.

Example cases with answers are listed next.
CC(C)N1CCN(Cc2cnc(-c3ccc(C(=O)Nc4ccccc4N)cc3)c(C#N)c2)CC1	1.28
Cc1cc(CN2CCN(C(C)C)CC2)cnc1-c1ccc(C(=O)Nc2ccccc2N)cc1	1.44
Cc1cc(CN2CCC2)cnc1-c1ccc(C(=O)Nc2ccccc2N)cc1	1.18
CCN1CCN(Cc2cnc(-c3ccc(C(=O)Nc4ccccc4N)cc3)c(C#N)c2)CC1	1.14
CC(C)N1CCN(Cc2cnc(-c3ccc(C(=O)Nc4ccccc4N)cc3)c(F)c2)CC1	1.6

input: Given the compound N#Cc1cccnc1-c1ccc(C(=O)Nc2ccccc2N)cc1 , what is its reported logD?
output: 1.58

input: Look at this compound and give its reported logD. CC(C)N1CCN(Cc2cnc(-c3ccc(C(=O)Nc4ccccc4N)cc3)c(Cl)c2)CC1
output: 1.68
